Provide the reported GI50 of each item.
Test system: SNB-78
protocol_details: NCI tumour cell line growth inhibition, 48 h
Calls of active or inactive are those of the source. Cut-off read from the data, not from the text of the source: active = GI50 up to about 1.1 µM and inactive = higher.

Each of the following entries comes with a recorded value; kindly state GI50 for each.
1. COc1ccccc1NC(=O)C(=O)C(C(=O)c1ccccc1F)C1OC(=O)c2ccccc21 (centres undefined)
2. O=c1c(-c2ccccc2)c2oc(c1-c1ccccc1)CSCc1cccc(c1)CSC2
3. [N-]=[N+]=NC(c1cn(C2CC(O)C(CO)O2)c(=O)[nH]c1=O)C(Br)Br (centres undefined)

Result:
1. 25.5 µM (inactive)
2. 82.8 µM (inactive)
3. > 100 µM (inactive)

For record `C=CCc1cc(-c2cc(CC=C)c(O)c(CNC)c2)cc(CNC)c1O` the listed GI50 is 19.5 µM (inactive)

----------
System: MCF7
protocol_details: NCI tumour cell line growth inhibition, 48 h
The source made the active and inactive calls. No stated cut-off is given here; in the data, active = GI50 up to about 1.1 µM and inactive = higher.
Record form. Attribute: GI50. Fill in for each entry.

Observe how each entry below is paired with its result.
c1ccc(-c2cnc(-c3ccc(-c4ncc(-c5ccccc5)o4)cc3)o2)cc1: > 100 µM (inactive)
CC(C)/C(Cl)=N\OC(=O)Nc1cccc(F)c1: 11 µM (inactive)
COc1cc(/C=C2\C(=O)N(c3ccccc3)C(c3ccccc3)S2(=O)=O)cc(OC)c1OC (centres undefined): 31.2 µM (inactive)
C[C@]12CCNC(=O)C=C1CC[C@@H]1C2CC[C@@]2(C)C1CC[C@@H]2OC(=O)COc1ccc(N(CCCl)CCCl)cc1 (some centres undefined): 1.29 µM (inactive)
CC(=O)Oc1ccc(/C=C/C(=O)O[C@@H](C(=O)O)[C@@H](OC(=O)/C=C/c2ccc(OC(C)=O)c(OC(C)=O)c2)C(=O)O)cc1OC(C)=O: > 100 µM (inactive)
CC(C)OC(=O)c1ccc(NCc2cc(O)ccc2O)cc1: 1.66 µM (inactive)

I have 3 molecules here; please give me GI50 for each one.
1. CN(C)/C=N/S(=O)(=O)c1nn2c(C=O)c(-c3ccccc3)nc2s1
2. Cc1ccc(S(=NS(=O)(=O)c2ccc(C)cc2)c2ccc(C)cc2)cc1
3. CC(=O)N1C(Nc2nccs2)CCN1c1ccccc1 (centres undefined)

Result:
1. 4.93 µM (inactive)
2. 68.2 µM (inactive)
3. > 10 µM (inactive)

----------
What GI50 was measured for each of the following?
Tested on: NCI-H226
protocol_details: NCI tumour cell line growth inhibition, 48 h
The source made the active and inactive calls. No stated cut-off is given here; in the data, active = GI50 up to about 1.1 µM and inactive = higher. Peptide text beside a SMILES is read from it. * marks the point of attachment. Boc = CC(C)(C)OC(=O)*

Some compounds with known GI50 results, for comparison:
c1ccc2c(CC3NCCN3)cccc2c1: > 100 µM (inactive)
Cc1nc(N)sc1/N=N/c1ccccc1Br: 39.7 µM (inactive)
Cc1cccc(N2C(=O)C(=O)C(c3nc4ccccc4s3)/C(=N/NC(=S)NN)C2=O)c1C (stereo not given): > 100 µM (inactive)

Working through the 2 compounds below one at a time, give GI50 for each.
1. COC(=O)C(Cc1ccccc1)NC(=O)C(CS)NC(=O)OC(C)(C)C (stereo not drawn) (Boc-Cys-Phe-OMe; configuration not given here)
2. CC(C)OC1=C(CC2(C)OCCO2)C(=O)C12OCCO2

Result:
1: > 100 µM (inactive); 2: > 100 µM (inactive)

----------
Tested on: OVCAR-5
protocol_details: NCI tumour cell line growth inhibition, 48 h
Calls of active or inactive are those of the source. Cut-off read from the data, not from the text of the source: active = GI50 up to about 1.1 µM and inactive = higher. Peptide text beside a SMILES is read from it. * marks the point of attachment. Boc = CC(C)(C)OC(=O)*
Valid outcomes are listed here; reply with one: T (active), F (inactive)

The following compounds have reported results that may help.
COc1cccc(CC2Cc3ccccc3CC(=O)N2)c1 (centres undefined): F
Cc1cc2nc(C#N)c(N3CCN(c4ccc([N+](=O)[O-])cc4)CC3)nc2cc1C: F
COc1ccc(C)cc1Nc1nnc(-c2ccccc2N)s1: F
CC(=O)N1CN2C(=O)CCC2c2ccccc21 (centres undefined): F

Request: I'd appreciate the recorded outcome for CC(=O)C(C(=O)c1ccc(C)cc1)[C@H]1OC(C)(C)O[C@H]1[C@H]1COC(C)(C)O1 (some centres undefined) from this test.
Result: F

Request: Which outcome was assigned to CCCC(=O)OCC1OC(n2cc(F)c(=O)[nH]c2=O)C(F)C1OC(=O)CCC (centres undefined) in this test?
Result: F

Request: Write down the call the test reported for this compound. Item: N#Cc1ccccc1NC(=O)C(=O)C(C(=O)c1ccncc1)C1OC(=O)c2ccccc21 (centres undefined)
Result: F

Request: Please share the test call associated with `COc1ccc2c(c1)Cc1cc(/N=[N+](\[O-])c3ccc4c(c3)Cc3cc(OC)ccc3-4)ccc1-2` .
Result: F

Request: What call does the record list for COC1(C)C(=O)N2C1N(C(=O)OC(C)(C)C)CC2(C)C (centres undefined) ?
Result: F

Request: What classification did `COc1c(C(=O)c2ccc([N+](=O)[O-])cc2)cc(C(C)(C)C)cc1C(C)(C)C` end up with in this test?
Result: F

Request: Lab log entry: COC(=O)C(Cc1ccccc1)NC(=O)C(CS)NC(=O)OC(C)(C)C (stereo not drawn) (Boc-Cys-Phe-OMe; configuration not given here) — outcome as called in the assay?
Result: F

Request: Tell me the assay call for `O=C(N/N=C1/C(=O)c2c3ccccc3cc3cccc1c23)c1cccc(Cl)c1` please.
Result: F

Request: Look up the recorded call for `CC(=O)Oc1ccc(/C=C/C(=O)O[C@@H](C(=O)O)[C@@H](OC(=O)/C=C/c2ccc(OC(C)=O)c(OC(C)=O)c2)C(=O)O)cc1OC(C)=O` in this test.
Result: F

Request: Write down the call the test reported for this compound. Item: `COc1ccc(/[N+]([O-])=C/c2ccc(OC(=S)S)c(OC)c2)cc1`
Result: F

Request: Check the results log: what was the call for `CCOc1ccc(/N=N/c2ccc3oc(=O)c(/C(C)=N/NC(=O)CC(=O)Nc4cccc(OC)c4)cc3c2)cc1` ?
Result: F

Request: Tell me the recorded outcome of this test for `COC(=O)C1=C(OC)[C@H]2C#C/C=C\C#C[C@@H]3Nc4c(cc(O)c5c4C(=O)c4ccccc4C5=O)[C@]24O[C@@]34[C@H]1C` .
Result: T

Request: For this compound, state the assay outcome: `Clc1ncnc(Cl)c1Cl`
Result: F

Request: For NC(Cc1n[nH]c2ccccc12)C(=O)O (centres undefined) , which call appears in the assay record?
Result: F

Request: Which outcome did this test record for the compound COc1cc(/C=C2\C(=O)N(c3ccccc3)C(c3ccccc3)S2(=O)=O)cc(OC)c1OC (centres undefined) ?
Result: F

----------
Test system: HCC 2998
protocol_details: NCI tumour cell line growth inhibition, 48 h
Active and inactive are the calls of the source. No stated cut-off is given here; in the data, active = GI50 up to about 1.1 µM and inactive = higher.
Valid outcomes are listed here; reply with one: active, inactive

Here's what some known entries look like.
COc1ccc(C2OC(c3ccncc3)=NN2C)cc1OC (configuration not stated): inactive
CC(Oc1ccccc1Cl)C(=O)NN1C(=O)CC(=O)N(c2ccccc2)C1=S (configuration not stated): inactive
CN(C)c1ccc2c(NCCCCCCNc3ccnc4cc(N(C)C)ccc34)ccnc2c1: inactive
COc1cccc(CCn2c(N)c(-c3cc(Cl)cc(Cl)c3)c3ccc([N+](=O)[O-])cc3c2=O)c1: inactive
Cc1cccc2c1CCC21OC(=O)c2c1ccc1ccccc21 (configuration not stated): inactive

Request: Which outcome was entered for the molecule O=[N+]([O-])c1ccc(C2CC(c3ccccc3Cl)=Nc3ccccc3[S+]2[O-])cc1 (configuration not stated) in this test?
Result: inactive

Request: Dear all, I need the recorded test outcome for `CN(C)c1ccc(-c2cc(O)c3cc4c(cc3n2)OCO4)cc1` , thank you.
Result: inactive

Request: Please let me know the test result on file for `O=C1C=C/C(=N/c2cccc3c(/N=C4/C=CC(=O)O4)cccc23)O1` .
Result: inactive

Request: What was the test verdict on `C=C(C)[C@@H]1C[C@H]2O[C@](O)(C(=C)CC(=O)/C=C(/C)C[C@@H]3OC(=O)[C@]24O[C@@H]34)[C@H]1O` ?
Result: inactive

Request: Recorded test outcome, item NC1=NCC(c2ccccn2)C1c1ccc(F)cc1 (configuration not stated)
Result: inactive

----------
Consider the following compounds; for each one, report its GI50.
Test system: TK-10
protocol_details: NCI tumour cell line growth inhibition, 48 h
Activity calls are given as the source filed them. Rule as the data show it: active = GI50 up to about 1.1 µM and inactive = higher.

Record GI50 per entry; entries follow.
1. Clc1ncnc(Cl)c1Cl
2. CC1(C)OCC(CO)(Nc2nc(N3CC3)nc(N3CC3)n2)CO1
3. CC(=O)Oc1ccc(/C=C/C(=O)O[C@@H](C(=O)O)[C@@H](OC(=O)/C=C/c2ccc(OC(C)=O)c(OC(C)=O)c2)C(=O)O)cc1OC(C)=O
4. CCOC(=O)C(=CNc1ccc(N(C2=NCC(C)S2)c2ccc(F)c(Cl)c2)cc1)C(=O)OCC (stereo not given)
5. CN(C(=O)C12C3C4C5C3C1(C(=O)O)C5C42)C(C)(C)C (stereo not given)

Result:
> 100 µM (inactive)
24.6 µM (inactive)
> 100 µM (inactive)
21.8 µM (inactive)
> 100 µM (inactive)
